Measured values drawn from ChEMBL document CHEMBL1145887 for this set.

# MEASURED_TARGET: Peroxisome proliferator-activated receptor gamma (Homo sapiens, UniProt P37231)
# Sequence (P37231 whole entry): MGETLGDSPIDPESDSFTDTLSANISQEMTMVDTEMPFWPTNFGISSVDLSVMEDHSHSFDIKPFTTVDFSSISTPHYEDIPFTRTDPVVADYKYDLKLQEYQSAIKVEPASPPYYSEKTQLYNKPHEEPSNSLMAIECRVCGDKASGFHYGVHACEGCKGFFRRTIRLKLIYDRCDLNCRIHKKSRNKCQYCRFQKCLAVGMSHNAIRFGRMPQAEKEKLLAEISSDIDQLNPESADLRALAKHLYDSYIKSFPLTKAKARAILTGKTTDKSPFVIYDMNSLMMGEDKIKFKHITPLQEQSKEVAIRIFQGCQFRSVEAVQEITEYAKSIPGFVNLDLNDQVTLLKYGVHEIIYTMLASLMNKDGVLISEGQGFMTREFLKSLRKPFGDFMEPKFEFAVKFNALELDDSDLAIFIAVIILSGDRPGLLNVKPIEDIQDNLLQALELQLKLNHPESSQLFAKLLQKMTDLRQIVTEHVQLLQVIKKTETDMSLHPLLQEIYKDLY
pEC50: −log10 of the molar value.
Entries and their pEC50

[
  {
    "SMILES_REPR": "CCCCC[C@H](O)/C=C/[C@@H]1[C@H]2C/C(=C\\CCCC(=O)O)C[C@H]2C[C@H]1O",
    "pEC50": 5.10
  },
  {
    "SMILES_REPR": "CCO[C@@H](Cc1ccc(OC/C=C/C#Cc2cccc(C#C/C=C/COc3ccc(C[C@H](OCC)C(=O)O)cc3)c2)cc1)C(=O)O",
    "pEC50": 5.78
  },
  {
    "SMILES_REPR": "CCO[C@@H](Cc1ccc(OC/C=C(\\C)c2ccc(-c3ccc(/C(C)=C/COc4ccc(C[C@H](OCC)C(=O)O)cc4)cc3)cc2)cc1)C(=O)O",
    "pEC50": 6.49
  },
  {
    "SMILES_REPR": "CCO[C@@H](Cc1ccc(OC/C=C(\\C)c2ccc(-c3ccccc3)cc2)cc1)C(=O)O",
    "pEC50": 5.69
  },
  {
    "SMILES_REPR": "CCO[C@@H](Cc1ccc(OC/C=C/C#Cc2ccccc2)cc1)C(=O)O",
    "pEC50": 5.95
  },
  {
    "SMILES_REPR": "CCO[C@@H](Cc1ccc(OC/C=C/C#Cc2ccc(C#C/C=C/COc3ccc(C[C@H](OCC)C(=O)O)cc3)cc2)cc1)C(=O)O",
    "pEC50": 6.96
  }
]
